Source listed as BindingDB's records for doi:10.1074/jbc.273.36.23321.

target: Galanin receptor type 3 (Rattus norvegicus)
property_name: pKi
Please keep in mind that pKi is minus log10 of the molar concentration; only the number is needed.

Here COc1ccccc1N(CCOc1ccc(C)cc1)C(=O)CN1CCCCC1 was tested on Galanin receptor type 3 (Rattus norvegicus), and its pKi came to 7.98

###

target: Galanin receptor type 3 (Rattus norvegicus, UniProt O88626)
Sequence (O88626 whole entry): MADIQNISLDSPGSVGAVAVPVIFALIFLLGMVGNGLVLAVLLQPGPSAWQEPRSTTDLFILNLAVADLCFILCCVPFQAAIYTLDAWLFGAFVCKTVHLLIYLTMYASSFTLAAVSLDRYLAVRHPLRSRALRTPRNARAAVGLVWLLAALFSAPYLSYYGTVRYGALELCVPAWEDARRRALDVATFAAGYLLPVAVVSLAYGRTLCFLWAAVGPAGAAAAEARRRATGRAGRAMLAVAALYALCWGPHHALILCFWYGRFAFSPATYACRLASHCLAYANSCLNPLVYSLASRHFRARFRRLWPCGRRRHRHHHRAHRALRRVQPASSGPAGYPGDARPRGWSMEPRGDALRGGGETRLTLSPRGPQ
property_name: Ki (nM)
Supply the numeric figure in nM, leaving out any unit text.

Here H-GWTLNSAGYLLGPPPALALA-NH2 [M40] was tested on Galanin receptor type 3 (Rattus norvegicus, UniProt O88626), and its Ki came to 79.4
